Data credit: paper PMC4336329

- study_system: human ether-à-go-go-related gene (hERG) potassium channel (human, UniProt Q12809);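 note: peak tail current of the secondary pulse compared with the same well before compound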
- Sequence (Q12809 whole entry, looked up): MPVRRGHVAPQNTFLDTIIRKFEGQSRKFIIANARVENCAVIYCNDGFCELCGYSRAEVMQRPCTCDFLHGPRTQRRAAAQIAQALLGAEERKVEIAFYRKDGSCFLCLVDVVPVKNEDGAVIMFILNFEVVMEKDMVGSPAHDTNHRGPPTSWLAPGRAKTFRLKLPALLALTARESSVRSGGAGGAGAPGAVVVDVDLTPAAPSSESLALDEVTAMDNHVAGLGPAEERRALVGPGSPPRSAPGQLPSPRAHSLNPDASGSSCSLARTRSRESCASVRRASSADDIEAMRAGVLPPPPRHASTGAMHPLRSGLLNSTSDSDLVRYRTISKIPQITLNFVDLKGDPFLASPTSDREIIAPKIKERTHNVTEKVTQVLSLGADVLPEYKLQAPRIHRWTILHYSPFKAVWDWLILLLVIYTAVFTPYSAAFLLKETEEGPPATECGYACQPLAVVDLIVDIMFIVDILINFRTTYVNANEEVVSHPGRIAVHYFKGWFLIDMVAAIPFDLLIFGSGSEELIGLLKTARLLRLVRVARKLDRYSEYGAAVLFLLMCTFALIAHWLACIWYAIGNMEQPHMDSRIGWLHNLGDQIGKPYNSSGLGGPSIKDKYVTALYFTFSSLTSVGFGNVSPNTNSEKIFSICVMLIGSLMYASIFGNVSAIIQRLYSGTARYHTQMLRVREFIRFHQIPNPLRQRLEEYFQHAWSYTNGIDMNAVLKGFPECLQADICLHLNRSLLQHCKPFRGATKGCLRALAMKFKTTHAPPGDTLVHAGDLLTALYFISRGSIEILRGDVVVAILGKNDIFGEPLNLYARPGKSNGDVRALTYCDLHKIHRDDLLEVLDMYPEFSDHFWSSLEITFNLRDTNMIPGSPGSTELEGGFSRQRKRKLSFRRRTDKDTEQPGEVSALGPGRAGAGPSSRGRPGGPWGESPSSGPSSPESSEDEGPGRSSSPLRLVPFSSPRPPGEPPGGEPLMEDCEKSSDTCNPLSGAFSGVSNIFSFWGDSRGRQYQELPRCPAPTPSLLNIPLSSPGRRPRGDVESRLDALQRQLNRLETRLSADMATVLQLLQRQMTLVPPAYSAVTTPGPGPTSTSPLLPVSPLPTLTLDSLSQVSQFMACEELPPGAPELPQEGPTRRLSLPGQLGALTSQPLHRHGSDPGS
- test: primary screen, population patch clamp on CHO cells stably expressing hERG; higher = less effect of the substance
About 14,000 (4.5%) of roughly 310,000 compounds showed an effect of 50% or more. The effect is printed as a negative number. The entries come from a sample that favours strong results as a whole.
Catalogue of hERG current change (%, negative = inhibition) at 10uM values
The response must be a number in % with no trailing unit.

Use the examples below as a reference point.
[
  {
    "chemical_structure": "NC(=O)C1CCN(CC(=O)Nc2ccccc2C(=O)NC2CC2)CC1",
    "reported_result": 1.42
  },
  {
    "chemical_structure": "COc1ccc(/C=N/NC(=O)C(=O)Nc2ccccn2)cc1OC",
    "reported_result": -27.2
  }
]

[ask] Suppose we examine the molecule N#Cc1ccc(CN2CCN(CC(=O)Nc3ccccc3C(=O)NC3CC3)CC2)cc1 ; what hERG current change (%, negative = inhibition) at 10uM value has been reported?
[reply] -77.9
